Test: Oral bioavailability in monkey at 5 mg/kg
Format: ADME, organism-based, Macaca mulatta
Conditions: rhesus monkey, in vivo
assay-readout: bioavailability

Asked: Entry COc1cccc(Nc2ncnn3ccc(CN4CC[C@@H](N)[C@@H](O)C4)c23)c1 : reported bioavailability = ?
Given back: 8%

---

Assay: Oral bioavailability in mouse at 2 mg/kg
Assay type: ADME, organism-based
Conditions: in vivo
assay-readout: bioavailability (%)
Report as a plain number; the unit % is understood.

Asked: Entry COc1cccc(Nc2ncnn3ccc(CN4CC[C@@H](N)[C@@H](O)C4)c23)c1 : reported bioavailability = ?
Given back: 29.7

---

Experiment: Oral bioavailability in rat at 2 mg/kg by LC-MS/MS analysis
Type: ADME, organism-based
Settings: in vivo
assay-readout: bioavailability (%)
Report as a plain number; the unit % is understood.

Asked: Entry COc1cccc(Nc2ncnn3ccc(CN4CC[C@@H](N)[C@@H](O)C4)c23)c1 : reported bioavailability = ?
Given back: 29.7
